experiment description: human bioavailability comparison study, Tablet Formulation 9 vs co-administered single entity products
Assay type: in vivo
experimental parameters: human, plasma, oral, Treatment C: two units Tablet Formulation 9b; human plasma, fasted

# molecule, unit name, Cmax
rows = [
    ("C=C[C@@H]1C[C@]1(NC(=O)[C@@H]1C[C@@H]2CN1C(=O)[C@H](C(C)(C)C)NC(=O)O[C@@H]1C[C@H]1CCCCCc1nc3ccc(OC)cc3nc1O2)C(=O)NS(=O)(=O)C1CC1 [Compound III, hydrate]", "nM", 34.1),
]

###

experiment description: human bioavailability comparison study, Tablet Formulation 10 vs co-administered single entity products
Format: in vivo
experimental parameters: human, in vivo, Treatment B: one unit Tablet Formulation 10a (300 mg Compound I, 100 mg Compound II, 50 mg Compound III); human plasma, fasted; read-out: AUC0-last GM
endpoint label: AUC(0-t) (µM·h)

# compound, endpoint label, value measured
rows = [
    ("CC(C)OC(=O)[C@@H](C)NP(=O)(OC[C@H]1O[C@@H](n2ccc(=O)[nH]c2=O)[C@](C)(Cl)[C@@H]1O)Oc1ccccc1 (stereo partly shown) [Compound I]", "AUC(0-t)", 1.55),
]
